Test system: polyoma virus transformed BHK21/c13 cells, line S100T1
Assay: Collocation inhibition test: clonal growth in sparsely and densely seeded areas of a cell density gradient of S100T1 cells in soft agar (Exp 13, 17, 19-26);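 further: soft agar cultures in 24-well plates with a cell density gradient in the top layer, compounds applied from DMSO stocks, clonal growth scored in sparse versus dense areas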
Conditions: Experiment 26; L: area with low cell density; High concentration; read after 24 hours
reported.endpoint: Resulting clonal growth of treated cultures

1. CN(C)c1nc(N(C)C)nc(N(C)C)n1 [Altretamine, reference compound] : ++
2. CC1=C(CC(=O)O)c2cc(F)ccc2/C1=C\c1ccc([S+](C)[O-])cc1 (stereo not shown) [Sulindac, reference compound] : +
3. c1ccc2c(c1)cc1ccc3cccc4ccc2c1c34 [Benzo(a)pyrene, reference compound] : +++
4. CCCCC1(O)C(=O)N(c2ccccc2)N(c2ccc(O)cc2)C1=O (stereo not shown) : −
